Assay: self-splicing fitness, log relative to wild type (ln ratio); higher = more splicing; Tetrahymena group I intron in knt gene, E. coli kanamycin selection, DiMSum; sequences stand for … in CUCUCU…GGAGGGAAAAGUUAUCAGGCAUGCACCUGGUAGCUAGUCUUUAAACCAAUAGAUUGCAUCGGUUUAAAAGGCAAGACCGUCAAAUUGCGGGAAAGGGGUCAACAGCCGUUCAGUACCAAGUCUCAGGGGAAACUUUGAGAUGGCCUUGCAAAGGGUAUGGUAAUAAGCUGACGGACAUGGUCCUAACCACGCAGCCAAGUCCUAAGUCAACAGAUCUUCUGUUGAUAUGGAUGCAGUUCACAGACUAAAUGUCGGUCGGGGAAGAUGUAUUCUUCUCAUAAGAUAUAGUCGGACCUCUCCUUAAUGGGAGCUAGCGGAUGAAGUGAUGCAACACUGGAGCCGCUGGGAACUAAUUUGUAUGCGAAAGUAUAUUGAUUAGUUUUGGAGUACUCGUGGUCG;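 further: selection with 25 µg/mL kanamycin versus none on LB agar overnight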
Conditions: 37 °C
Parameter Measured: self-splicing fitness (ln)
Output spec: single numeric token, no unit.

Below: 2 sequences and their reported self-splicing fitness (ln).
> print(dat)
         entry.sequence  readout.number
1  CCGGAGCAAUAUUACGGGCC           -2.03
2  CCCAAGCAAUAUUACGAUGU           -2.04

Turning now to a further sequence:
Ask: self-splicing fitness (ln) lookup needed for `CGAGAGCAAUAUUACGAGGU` , thanks.
Result: -2.02

###

Assay: self-splicing fitness, log relative to wild type (ln ratio); higher = more splicing; Tetrahymena group I intron in knt gene, E. coli kanamycin selection, DiMSum; sequences stand for … in CUCUCU…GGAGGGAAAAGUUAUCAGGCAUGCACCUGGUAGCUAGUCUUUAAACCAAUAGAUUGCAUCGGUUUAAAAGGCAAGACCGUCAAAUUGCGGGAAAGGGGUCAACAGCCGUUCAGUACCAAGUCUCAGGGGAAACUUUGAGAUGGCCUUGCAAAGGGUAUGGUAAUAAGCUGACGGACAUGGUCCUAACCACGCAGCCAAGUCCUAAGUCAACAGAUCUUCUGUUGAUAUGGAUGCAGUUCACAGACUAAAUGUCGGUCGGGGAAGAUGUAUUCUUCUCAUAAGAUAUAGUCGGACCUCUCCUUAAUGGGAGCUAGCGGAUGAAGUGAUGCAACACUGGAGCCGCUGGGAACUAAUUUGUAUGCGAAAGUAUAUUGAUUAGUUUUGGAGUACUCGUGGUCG
Conditions: 37 °C
As shown below, each of these sequences has a reported self-splicing fitness (ln) value.
Just the number, please, no unit after it.

> print(dat)
         entry.sequence  readout.number
1  UGCGAGCAAUAUUACGCCUA          -0.762
2  AGACAGCAAUAUUACGGUCU           -2.48
3  AACAAGCAAUAUUACGACUC           0.125
4  AUACAGCAAUAUUACGUUGA           -1.44
5  CUGAAGCAAUAUUACGGACU          -0.495

Ask: self-splicing fitness (ln) lookup needed for `GGGAAGCAAUAUUACGACUU` , thanks.
Result: -0.202

###

Assay: self-splicing fitness, log relative to wild type (ln ratio); higher = more splicing; Tetrahymena group I intron in knt gene, E. coli kanamycin selection, DiMSum; sequences stand for … in CUCUCU…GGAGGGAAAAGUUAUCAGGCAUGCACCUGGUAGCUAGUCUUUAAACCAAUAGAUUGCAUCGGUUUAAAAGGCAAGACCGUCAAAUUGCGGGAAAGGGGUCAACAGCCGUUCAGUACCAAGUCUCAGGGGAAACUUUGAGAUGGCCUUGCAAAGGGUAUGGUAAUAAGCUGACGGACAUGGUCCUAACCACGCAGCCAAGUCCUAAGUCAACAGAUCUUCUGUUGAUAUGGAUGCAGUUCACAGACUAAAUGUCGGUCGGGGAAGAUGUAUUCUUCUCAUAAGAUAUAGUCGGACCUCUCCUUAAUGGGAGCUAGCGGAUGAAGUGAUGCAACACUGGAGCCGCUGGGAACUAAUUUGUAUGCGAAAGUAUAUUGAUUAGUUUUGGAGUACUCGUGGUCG
Details: 37 °C
Measured self-splicing fitness (ln), listed per entry for reference.

Here are 3 sequences together with their reported answers.
> print(dat)
         entry.sequence          parameter.measured  result
1  AAAUAGCAAUAUUACGAGGA  self-splicing fitness (ln)   -1.88
2  UCGAAGCAAUAUUACGAUGC  self-splicing fitness (ln)   -1.92
3  GACAAGCAAUAUUACGCCAA  self-splicing fitness (ln)   -1.61

Ask: Need self-splicing fitness (ln), item `UAACAGCAAUAUUACGCUUA`
Result: 0.122

Ask: Next sequence: `GGGCAGCAAUAUUACGGCUU`
Result: -1.14

Ask: // same read-out, input: `AUCGAGCAAUAUUACGUGAA`
Result: -1.83

Ask: Same for `CUCGAGCAAUAUUACGAACU`
Result: -2.8
